test: Particle size distribution and specific surface area (LS 200, Small Volume Module, Fraunhofer optical model); type: physicochemical; conditions: calculations from 0.375 μm to 2000 μm
Property: Median particle size (volume statistics, arithmetic); scope: individual compounds
TEST_READOUT: Median particle size (volume statistics, arithmetic) (μm)

{"columns": ["COMPOUND", "RECORDED_RESULT"],
 "data": [
  ["O=C([O-])CCNC(=O)c1ccc(/N=N/c2ccc(O)c(C(=O)[O-])c2)cc1.[Na+].[Na+] [Sample 4]", 17.82],
  ["O=C([O-])CCNC(=O)c1ccc(/N=N/c2ccc(O)c(C(=O)[O-])c2)cc1.[Na+].[Na+] [Sample 3]", 6.679],
  ["O=C([O-])CCNC(=O)c1ccc(/N=N/c2ccc(O)c(C(=O)[O-])c2)cc1.[Na+].[Na+] [Sample 2]", 5.044],
  ["O=C(O)CCNC(=O)c1ccc(/N=N/c2ccc(O)c(C(=O)O)c2)cc1 [Feed Powder Sample A (#35.$01)]", 8.031],
  ["O=C([O-])CCNC(=O)c1ccc(/N=N/c2ccc(O)c(C(=O)[O-])c2)cc1.[Na+].[Na+] [Sample 1]", 5.584]
]}
